System: human SMAD7 mRNA
protocol_text: Dose-dependent inhibition of human SMAD7 mRNA expression in Hep3B cells (Example 3, Study 1 and 2)
Format: cell-based
condition_info: 312.5 nM, electroporation, approximately 16 hours, Study 1, relative to untreated control cells
Strand notation (5' to 3'): a small letter for the sugar, then the base; units joined by * are phosphorothioate-linked, units joined directly phosphodiester-linked; [ ] holds rarer units or linkages, { } end groups; capitals alone tell only the bases. e = 2'-O-(2-methoxyethyl) (MOE); [5mC] = 5-methylcytosine; d = 2'-deoxy (DNA)
Task for the reader: assign each of the following substances its reported % inhibition of SMAD7 mRNA expression.
Unit % implied. Number only.

Inquiry: If you can, please state the reported % inhibition of SMAD7 mRNA expression value of 771869 (antisense eA*eG*e[5mC]*e[5mC]*eA*dA*dG*dT*dG*dT*d[5mC]*d[5mC]*dA*dT*d[5mC]*eA*eA*eG*e[5mC]*eA) [compound 771869] .
Reply text: 10

Inquiry: If you can, please state the reported % inhibition of SMAD7 mRNA expression value of 771836 (antisense eT*eG*eT*eT*eG*dA*dG*dG*dA*d[5mC]*dT*d[5mC]*d[5mC]*d[5mC]*d[5mC]*eA*eG*e[5mC]*e[5mC]*eA) [compound 771836] .
Reply text: 6

Inquiry: If you can, please state the reported % inhibition of SMAD7 mRNA expression value of 771418 (e[5mC]*e[5mC]*eG*e[5mC]*e[5mC]*dA*d[5mC]*d[5mC]*dG*dG*d[5mC]*d[5mC]*d[5mC]*d[5mC]*dA*eT*eG*e[5mC]*eG*e[5mC]; antisense) [compound 771418] .
Reply text: 3

Inquiry: If you can, please state the reported % inhibition of SMAD7 mRNA expression value of 771793 (antisense eA*eA*eG*eT*e[5mC]*d[5mC]*d[5mC]*dT*dA*dA*d[5mC]*dG*dA*d[5mC]*d[5mC]*eA*eG*eG*e[5mC]*e[5mC]) [compound 771793] .
Reply text: 16

Inquiry: If you can, please state the reported % inhibition of SMAD7 mRNA expression value of 771441 (e[5mC]*eG*eA*eG*eG*dG*d[5mC]*dG*dG*d[5mC]*dT*dG*d[5mC]*dG*d[5mC]*eA*eG*eG*e[5mC]*eT; antisense) [compound 771441] .
Reply text: 0

###

Task for the reader: assign each of the following substances its reported % Inhibition.
Test system: human SMAD7 mRNA
protocol_text: Antisense inhibition of human SMAD7 mRNA expression in Hep3B cells by 3-10-3 cEt gapmers, 10,000 nM, electroporation (Example 2)
Type: cell-based
condition_info: Hep3B cells, electroporation with 10,000 nM antisense oligonucleotide, approximately 24 hours, RTS5062, percent inhibition of SMAD7 mRNA relative to untreated control cells
Strand notation (5' to 3'): a small letter for the sugar, then the base; units joined by * are phosphorothioate-linked, units joined directly phosphodiester-linked; [ ] holds rarer units or linkages, { } end groups; capitals alone tell only the bases. k = constrained ethyl (cEt); [5mC] = 5-methylcytosine; d = 2'-deoxy (DNA)
Number first, unit second.

Inquiry: If you can, please state the reported % Inhibition value of 799748 (antisense kG*k[5mC]*kT*dG*dA*dA*dA*dA*dA*dG*dT*d[5mC]*dA*kT*kG*kA) [compound 799748] .
Reply text: 51%

Inquiry: If you can, please state the reported % Inhibition value of 799770 (kG*kT*kT*dT*d[5mC]*d[5mC]*dA*dA*dG*dG*d[5mC]*d[5mC]*dG*kG*k[5mC]*kG; antisense) [compound 799770] .
Reply text: 50%

Inquiry: If you can, please state the reported % Inhibition value of 799533 (kG*kA*kA*dT*dG*dA*dA*dG*dT*d[5mC]*d[5mC]*dA*dG*kA*k[5mC]*k[5mC]; antisense) [compound 799533] .
Reply text: 50%
